Tested on: HIV-2 isolate CDC310319
protocol_details: Antiviral assay in fresh human PBMCs
Assay type: cell-based
condition: Human immunodeficiency virus 2, PBMC, in Homo sapiens, read-out: EC50 (± SD)
observable: EC50
Report the figure along with its unit, number first.

Please look up its EC50: O=C(C=C(O)c1cc(Cc2c(F)cccc2F)cn(Cc2ccccc2F)c1=O)C(=O)NN1CCCC1=O
86 nM
